These data points were gathered from the supplement of paper PMC10567573.

B1: LRRC45 (parent)
chain: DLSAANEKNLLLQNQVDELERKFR

Variants of: B1
assayComment: protein stability index of a GFP-peptide fusion (GPS, HEK-293T) (PSI 1-6); higher = more stable;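 further: lentivirally expressed fusions sorted by FACS into six bins by GFP to DsRed ratio, PSI derived from sequencing read proportions per bin multiplied by bin number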
testSettings: c terminus: a fixed tail appended
Assign class by protein stability index: not lower than 4 means TRUE; lower than 4 means FALSE.

{"columns": ["var", "categoryLabel"],
 "data": [
  ["R21W", "FALSE"],
  ["E7G", "FALSE"],
  ["L10V", "TRUE"],
  ["Q15Y", "FALSE"],
  ["F23Q", "TRUE"],
  ["Q13M", "FALSE"],
  ["N9S", "TRUE"],
  ["E18N", "FALSE"],
  ["K22N", "TRUE"],
  ["A4Q", "FALSE"],
  ["L11A", "TRUE"],
  ["E18L", "FALSE"],
  ["N14T", "FALSE"],
  ["N6T", "TRUE"],
  ["R24E", "TRUE"],
  ["N9H", "TRUE"],
  ["Q15V", "FALSE"],
  ["F23K", "TRUE"],
  ["Q15D", "TRUE"],
  ["K22W", "FALSE"],
  ["D17M", "FALSE"],
  ["N9E", "TRUE"],
  ["L19F", "FALSE"],
  ["E20W", "FALSE"],
  ["S3F", "FALSE"],
  ["N6S", "TRUE"],
  ["K22H", "FALSE"],
  ["D17R", "FALSE"],
  ["E7L", "FALSE"],
  ["E20H", "FALSE"],
  ["A5C", "TRUE"],
  ["L19E", "TRUE"],
  ["L10D", "TRUE"],
  ["Q13F", "FALSE"],
  ["R24Q", "TRUE"],
  ["E18I", "FALSE"],
  ["K8A", "TRUE"],
  ["K8Q", "TRUE"],
  ["V16Y", "FALSE"],
  ["L2H", "TRUE"],
  ["K8V", "FALSE"],
  ["E20K", "FALSE"]
]}
